Assign pEC50 to each entry below.
Target: Wee1A kinase (CDK1 Tyr15 phosphorylation in ACHN renal cell carcinoma cells) (Homo sapiens, UniProt P30291)
Construct: pCDK1 Tyr15 immunofluorescence read-out
Sequence (P30291 whole entry): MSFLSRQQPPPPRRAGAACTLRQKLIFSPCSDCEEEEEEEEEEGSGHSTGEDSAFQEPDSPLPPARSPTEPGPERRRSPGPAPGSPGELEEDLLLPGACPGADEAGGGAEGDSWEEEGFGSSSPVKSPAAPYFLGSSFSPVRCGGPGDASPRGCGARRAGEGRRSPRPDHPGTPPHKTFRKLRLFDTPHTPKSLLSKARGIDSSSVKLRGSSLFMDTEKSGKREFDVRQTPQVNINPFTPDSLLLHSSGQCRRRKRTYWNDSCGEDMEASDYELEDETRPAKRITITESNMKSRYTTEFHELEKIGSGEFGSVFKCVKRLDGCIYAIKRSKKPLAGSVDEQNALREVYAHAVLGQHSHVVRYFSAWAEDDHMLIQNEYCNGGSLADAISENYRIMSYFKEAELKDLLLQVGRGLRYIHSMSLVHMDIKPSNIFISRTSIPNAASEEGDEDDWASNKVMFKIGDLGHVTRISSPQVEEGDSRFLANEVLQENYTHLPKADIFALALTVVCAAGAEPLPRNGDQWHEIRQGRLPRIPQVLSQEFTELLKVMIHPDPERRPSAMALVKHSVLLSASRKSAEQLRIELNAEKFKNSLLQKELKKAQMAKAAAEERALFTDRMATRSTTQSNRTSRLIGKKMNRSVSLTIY
Assay: High-content imaging of pCdk1 Y15, Wee1A kinase target engagement in ACHN cells
Type: cell-based
Conditions: read-out: CDK1 Tyr15 Phosphorylation EC50, 4 h treatment, nuclear positivity for pCdk1 Y15 vs DMSO control
pEC50: −log10 of the molar value.

Some solved entries appear below for comparison.
{"COMPOUND_STRUCTURE_STRING": "C=CCn1c(=O)c2cnc(Nc3ccc4c(cnn4C)c3)nc2n1-c1cccc(N(C)C2CCN(C)CC2)n1", "pEC50": "> 7.00"}
{"COMPOUND_STRUCTURE_STRING": "C=CCn1c(=O)c2cnc(Nc3cnn(CC(C)(C)F)c3)nc2n1-c1cccc(N(C)C2CCNCC2)n1", "pEC50": "< 6.00"}
{"COMPOUND_STRUCTURE_STRING": "C=CCn1c(=O)c2cnc(Nc3cnn(C)c3)nc2n1-c1cccc(O[C@H]2CN3CCC2CC3)n1", "pEC50": "< 6.00"}
{"COMPOUND_STRUCTURE_STRING": "C=CCn1c(=O)c2cnc(Nc3ccc(Cl)cc3)nc2n1-c1cccc(N(CCC)C2CCNCC2)n1", "pEC50": "< 6.00"}
{"COMPOUND_STRUCTURE_STRING": "C=CCn1c(=O)c2cnc(Nc3cnn(C)c3)nc2n1-c1cccc(N(C)C2CCN(C)CC2)n1", "pEC50": "6.30 to 7.00"}

Provide pEC50 values for the following items, in order.
1. CCn1c(=O)c2cnc(Nc3ccc4c(cnn4C)c3)nc2n1-c1cccc(N(C)C2CCN(C)CC2)n1
2. C=CCn1c(=O)c2cnc(Nc3cnn(CC(C)(C)F)c3)nc2n1-c1cccc(N(C)C2CCN(C)CC2)n1
3. C=CCn1c(=O)c2cnc(Nc3cnn(C(C)C)c3)nc2n1-c1cccc(N(C)C2CCNCC2)n1
4. CCn1c(=O)c2cnc(Nc3ccc4c(cnn4C)c3)nc2n1-c1cccc(N(C)C2CCNCC2)n1
5. C=CCn1c(=O)c2cnc(Nc3cnn(CC(C)C)c3)nc2n1-c1cccc(N(C)C2CCNCC2)n1
6. C=CCn1c(=O)c2cnc(Nc3cnn(CCC)c3)nc2n1-c1cccc(N(C)C2CCN(C)CC2)n1
7. C=CCn1c(=O)c2cnc(Nc3cnn(CCC(F)(F)F)c3)nc2n1-c1cccc(N(C)C2CCN(C)CC2)n1
8. C=CCn1c(=O)c2cnc(Nc3ccc(Cl)cc3)nc2n1-c1cccc(N(C)C2CCN(C)CC2)n1

Return:
1: > 7.00; 2: 6.00 to 6.30; 3: < 6.00; 4: < 6.00; 5: < 6.00; 6: 6.30 to 7.00; 7: 6.00 to 6.30; 8: 6.30 to 7.00

Provide pEC50 values for the following items, in order.
1. C=CCn1c(=O)c2cnc(Nc3cnn(C)c3)nc2n1-c1cccc(O[C@@H]2C[C@H]3CC[C@@H](C2)N3C)n1
2. C=CCn1c(=O)c2cnc(Nc3ccc4c(cnn4C)c3)nc2n1-c1cccc(N(C)C2CCNCC2)n1

Return:
1. 6.00 to 6.30
2. > 7.00

###

Tested on: A427 cells
Assay: Cell Titer Glo viability assay, A427 cells
Format: cell-based
Conditions: Homo sapiens, A-427, 144 h, absolute EC50
pEC50: −log10 of the molar value.
READOUT_TYPE: pEC50

{"COMPOUND_STRUCTURE_STRING": "C=CCn1c(=O)c2cnc(Nc3ccc(OCC(F)(F)F)cc3)nc2n1-c1cccc(OC2CCN(C)CC2)n1", "MEASURED_ON": "A427 cells", "pEC50": "≥ 7.00"}
{"COMPOUND_STRUCTURE_STRING": "C=CCn1c(=O)c2cnc(Nc3ccc(OCCF)cc3)nc2n1-c1cccc(OC2CCNCC2)n1", "MEASURED_ON": "A427 cells", "pEC50": "≥ 7.00"}
{"COMPOUND_STRUCTURE_STRING": "C=CCn1c(=O)c2cnc(Nc3cccc(C)c3)nc2n1-c1cccc(OC2CCNCC2)n1", "MEASURED_ON": "A427 cells", "pEC50": "≥ 7.00"}
{"COMPOUND_STRUCTURE_STRING": "C=CCn1c(=O)c2cnc(Nc3cnn(C)c3)nc2n1-c1cccc(OC2CCN(C)CC2)n1", "MEASURED_ON": "A427 cells", "pEC50": "≥ 7.00"}
{"COMPOUND_STRUCTURE_STRING": "C=CCn1c(=O)c2cnc(Nc3cc(C)cc(F)c3)nc2n1-c1cccc(NC2CCN(C)CC2)n1", "MEASURED_ON": "A427 cells", "pEC50": "6.30 to 7.00"}

Kindly review the next compound as well.
Measured on A427 cells, `C=CCn1c(=O)c2cnc(Nc3ccc4c(c3)ncn4C)nc2n1-c1cccc(OC2CCN(C)CC2)n1` has a documented pEC50 of ≥ 7.00
